Target: JAK3 (Homo sapiens, UniProt P52333)
Construct: made in house; host or cells: SF9 insect cells (baculovirus)
Sequence (P52333 783-1124): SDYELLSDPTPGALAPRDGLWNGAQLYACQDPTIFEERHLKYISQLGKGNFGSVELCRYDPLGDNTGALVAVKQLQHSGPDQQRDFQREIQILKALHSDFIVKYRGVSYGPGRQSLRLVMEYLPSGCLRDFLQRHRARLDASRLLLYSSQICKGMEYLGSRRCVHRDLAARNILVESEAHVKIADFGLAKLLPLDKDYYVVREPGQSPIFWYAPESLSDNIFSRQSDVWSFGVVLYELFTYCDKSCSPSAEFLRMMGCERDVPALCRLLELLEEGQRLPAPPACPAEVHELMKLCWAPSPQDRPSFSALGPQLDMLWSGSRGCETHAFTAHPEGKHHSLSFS
Test Details: JAK3 inhibition (Table 4)
Type: biochemical
Setup Conditions: read-out: JAK3 Ki
pKi: −log10 of the molar value.
Recorded Endpoint: pKi

Solved entries:
Compound | Target | pKi
N#CCCNC1CCC(n2cnc3cnc4[nH]ccc4c32)C1 (racemic) | JAK3 (Homo sapiens, UniProt P52333) | 7.54
C[C@@H](O)c1nc2cnc3[nH]ccc3c2n1[C@H]1COCCC1(F)F | JAK3 (Homo sapiens, UniProt P52333) | 7.10
CS(=O)(=O)NCc1nc2cnc3[nH]ccc3c2n1C1CCN(CC(F)(F)F)CC1 | JAK3 (Homo sapiens, UniProt P52333) | 7.16
CC(O)c1nc2cnc3[nH]ccc3c2n1C1CC2CCC1O2 (centres unmarked) [Example 938] | JAK3 (Homo sapiens, UniProt P52333) | 6.92

P. CS(=O)(=O)NCCc1nc2cnc3[nH]ccc3c2n1C1CC2CCC1C2 (centres unmarked)
Q. CC(C)N1CC(c2nc3cnc4[nH]ccc4c3n2C2CCN(CCC#N)CC2)CC1=O (racemic)
R. CC(O)c1nc2cnc3[nH]ccc3c2n1C1CCN(Cc2cnco2)CC1F (centres unmarked)
S. CC(C1CCCO1)n1cnc2cnc3[nH]ccc3c21 (single isomer, unassigned) [Example 417]
*Q* Task for the reader: rank each entry by its pKi, from the minimum upward. Order the labels as requested and list them.
*A* Q, S, P, R
(Q: 7.11, S: 7.37, P: 7.69, R: 7.95)
